Measured melting point of individual entries

// worked examples, melting point included
MOLECULE | melting point
O=[N+]([O-])c1oc2c(CCO)cccc2c1-c1ccccc1 | 133 to 136 °C
Cc1n[nH]c2ccc(-c3ccc4nnn(Cc5ccc6ncccc6c5)c4n3)cc12 | 246 to 249 °C
CSc1ncc2c(Cl)ccn2n1 | 107 to 108 °C
NC(=O)c1cccc(N2CCN(C(=O)c3c(-c4ccccc4)ccn3CC(=O)O)CC2)c1 | 132 °C
CCC(CC)N(O)C(=O)NCCCCCCCCNC(=O)N(O)C(CC)CC | 89 to 90 °C

Recorded melting point of COc1ccc2[nH]c(C)c(Cc3cc(=O)n(C4CCCCC4)[nH]3)c2c1 , please.
99 to 101 °C

For NC(=O)c1cc(OCCNCC(O)c2ccco2)ccc1O (stereo unspecified) then?
169 to 171 °C

Consider next the molecule COc1cnn(C)c(=O)c1Cl in the same way.
189 to 191 °C

Also, O=C(O)COc1ccc(NC(=O)c2csc(NC(=O)NCc3ccccc3)n2)cc1C(=O)O please.
219 °C

Follow-up item: COc1cc(COc2nn(-c3ccccc3)cc2/C=C/c2nnc(C)o2)ccc1OCc1nc(-c2ccco2)oc1C
186 to 187 °C

Please answer likewise for O=C(O)Cc1cccc2c(-c3ccc(Cl)cc3)onc12
200 to 202 °C

Another molecule to look at: CCCCCOCCCCCCCCCCCCBr
25 °C

How about this molecule: CCCCCCCCNc1ccc2c(C)nc(CC3OC(CO)C(O)C3O)n2n1 (stereo unspecified)
105 to 106 °C

Likewise for c1ccc(-c2nc3ncccc3[nH]2)nc1 ?
139 to 142 °C

Try this molecule next: Cc1ccc(C)n1C(C)c1nccc(I)c1F (stereo unspecified)
156 to 158 °C

Also Cc1c(C(N)=O)ncn1-c1cccc(Cl)c1 , if possible.
179 to 181 °C

Item: COc1cc(OC)c(N2CCCC2)cc1/C=C/C(=O)c1ccc(S(=O)(=O)NCCCN2CCN(C)CC2)cc1
64 to 68 °C

Moving on to the next molecule: Cc1cc([N+](=O)[O-])c(NCC(C)O)c([N+](=O)[O-])c1 (stereo unspecified)
80 °C

Then this molecule: N#CC(O)c1c(Cl)cccc1Cl (stereo unspecified)
90 °C

Now consider CCc1nc2c(cnn2CC)c(NC2CCOCC2)c1CN(Cc1ccc(OC)c(-c2cccc(CN3CCN(C)CC3)c2)c1)C(=O)c1cccc(C(N)=O)c1 .
120 to 123 °C

What about this molecule? COc1cc(Br)cc(C23CC4CC(CC(C4)C2)C3)c1O
157 to 159 °C

====

MEASUREMENT LABEL: melting point

Take a look at these entries with their results.
COMPOUND | melting point
COc1ccnc(CCc2nc3cc(-c4ccc(S(=O)(=O)NC5CCCCC5)cc4)cnc3[nH]2)c1 | 199 to 200 °C
O=C(O)Cc1c(C(=O)c2ccc(-c3ccccc3)cc2)[nH]c2cc(Cl)ccc12 | 228 to 231 °C
Cc1nccn1-c1nc(-c2ccc(Cl)cc2)c(CCCCO)s1 | 98 to 99 °C
O=C(NC(Cc1ccc(OCc2ccccc2)cc1)C(=O)O)c1nc2ccc(-c3ccc(Cl)cc3)cc2[nH]1 (stereo unspecified) | 260 to 261 °C
N#CC(Cc1ccccc1Cl)C(=O)O (stereo unspecified) | 132 to 134 °C
c1ccc(C2(Oc3cnccn3)CCNCC2)cc1 | 107 to 108 °C
O=C(O)C(O)=CC(=O)c1cc(Cc2ccc(F)cc2)cn(Cc2ccccc2F)c1=O | 182 to 184 °C
c1ccc2nc3c(nc2c1)OCC1CCCN31 (single isomer, unassigned; (+)) | 121 to 123 °C
CC1(C)OC(c2ccc(Cl)cc2Cl)C(Cn2cncn2)(c2ccc(Cl)cc2)O1 (stereo unspecified) | 141 to 142 °C
Cc1ccsc1C(=O)c1sc(Nc2ccc(N3CCN(C)CC3)cc2)nc1N | 237 to 238 °C

Need melting point of COc1ccc(C(=O)C#CCO)cc1 , thanks.
84 to 85 °C

Repeat for the following compound: COc1ccc2nc(-c3cc(C(F)(F)F)nn3-c3ccc(S(N)(=O)=O)cc3)sc2c1
236 to 237 °C

Next compound up: O=C(Nc1cccc(C(F)(F)F)c1)C12CC3CC(CC(C3)C1)C2
171 to 174 °C

Another compound to look at: CCOC(=O)C(=O)Nc1cnccn1
134 to 137 °C

Record: CCC1(C)C(=O)NN=C1c1ccc(-n2ccnc2)cc1 (stereo unspecified)
86 to 88 °C

Same question for O=C(c1ccccc1)c1cc2ccccc2o1 please.
88 to 90 °C

What would you report for CCCCN1CC2CN(S(=O)(=O)c3ccc(NC(=O)c4ccc(C#N)cc4)cc3)CC(C1)C2(C)C ?
145 °C

// query: Cc1ncc2c(n1)-c1ccc(Cl)cc1C(c1ccccc1F)=NC2
104 to 107 °C

How about this compound: Brc1cccc(Br)c1I
99 to 100 °C

Further, for Cc1c(C)c2c(c(C)c1O)CC(CCO)O2 (racemic) ?
123 to 125 °C

// same read-out, input: CSc1cc2c(cc1C(F)(F)F)N(C(=O)Nc1cccc(-c3csc(-c4cccnc4)n3)c1)CC2
154 to 155 °C
